# target.of.assay: CYP2C19 (Homo sapiens, UniProt P33261)
# Sequence (P33261 whole entry): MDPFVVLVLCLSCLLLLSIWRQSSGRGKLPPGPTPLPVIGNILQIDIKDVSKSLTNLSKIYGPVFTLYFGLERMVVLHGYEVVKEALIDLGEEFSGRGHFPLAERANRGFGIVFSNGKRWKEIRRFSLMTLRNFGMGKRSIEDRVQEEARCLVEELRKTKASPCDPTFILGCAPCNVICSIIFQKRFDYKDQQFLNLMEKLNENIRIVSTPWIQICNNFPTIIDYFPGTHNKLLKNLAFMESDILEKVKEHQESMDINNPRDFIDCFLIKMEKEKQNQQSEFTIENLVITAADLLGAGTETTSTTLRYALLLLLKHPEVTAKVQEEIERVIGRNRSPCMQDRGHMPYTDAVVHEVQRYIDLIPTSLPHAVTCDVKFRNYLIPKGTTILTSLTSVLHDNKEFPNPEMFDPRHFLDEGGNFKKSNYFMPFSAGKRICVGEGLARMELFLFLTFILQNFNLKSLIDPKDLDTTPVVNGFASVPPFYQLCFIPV
# experimental.details: Steady-state kinetics by recombinant CYP2C19 Supersomes
# Format: in vitro ADME
# stated.conditions: step 2.2a, metabolite 1-naphthyl-methylamine; CYP2C19
property: Km
Answers without a unit are incomplete; give the number and then its unit.

Query :: I am curious: what Km value has been reported for `CC(C)(C)C#C/C=C/CNCc1cccc2ccccc12` ?
Result :: 220 µM

* * *

# target.of.assay: CYP2C19 (Homo sapiens, UniProt P33261)
# experimental.details: Steady-state kinetics by recombinant CYP2C19 Supersomes
# Format: in vitro ADME
# stated.conditions: read-out: Km (affinity); CYP2C19; oxidative nondealkylation reactions
property: Km

Query :: I am curious: what Km value has been reported for `CC(C)(C)C#C/C=C/CNCc1cccc2ccccc12` ?
Result :: < 100 µM

* * *

# target.of.assay: CYP2C19 (Homo sapiens, UniProt P33261)
# experimental.details: Steady-state kinetics by recombinant CYP2C19 Supersomes
# Assay type: in vitro ADME
# stated.conditions: human, recombinant CYP2C19 Supersomes, pH 7.4, Km (affinity), CYP2C19; oxidative nondealkylation reactions
property: Km at 30 min

Query :: API: value(readout=Km at 30 min, system=CYP2C19 (Homo sapiens, UniProt P33261)) for record `CN(C/C=C/C#CC(C)(C)C)Cc1cccc2ccccc12`
Result :: < 100 µM

* * *

# target.of.assay: CYP2C19 (Homo sapiens, UniProt P33261)
# experimental.details: Steady-state kinetics by recombinant CYP2C19 Supersomes
# Type: in vitro ADME
# stated.conditions: step 2.2b, metabolite 1-naphthaldehyde; CYP2C19
property: Km (µM)
Please reply with the bare figure in µM and do not write the unit itself.

Query :: I am curious: what Km value has been reported for `CC(C)(C)C#C/C=C/CNCc1cccc2ccccc12` ?
Result :: 150
